± gives the standard deviation of the reports.
Answer each item with its documented glass transition temperature.
Quick note: number first, unit second.

Which glass transition temperature is reported for this molecule? *CC(*)(C)C(=O)Oc1c(OC)cc(/C=C/c2ccccc2)cc1OC (repeat unit)
140.00 °C

Record: *CCCCCOC(=O)c1ccc(/C=C/c2ccc(C(=O)O*)cc2)cc1 (repeat unit)
60.00 °C

Next molecule: *C(=O)Nc1ccc(Oc2ccc(Oc3ccc(NC(=O)c4ccc5c(c4)C(=O)N(c4ccc(-c6sc(-c7ccc(N8C(=O)c9ccc(*)cc9C8=O)cc7)c(-c7ccccc7)c6-c6ccccc6)cc4)C5=O)cc3)cc2)cc1 (repeat unit)
303.00 °C

// same read-out, input: *c1ccc2c(c1)C(CC(CC)CCCC)(CC(CC)CCCC)c1cc(*)ccc1-2 (repeat unit)
44.00 ± 21 °C

Next molecule: *Oc1ccc(Sc2ccc(OC3(F)C(*)(F)C(F)(F)C3(F)F)cc2)cc1 (repeat unit)
78.00 °C

// same read-out, input: *Nc1ccc(NC(=O)CCCCCCC(*)=O)cc1 (repeat unit)
138.00 °C

Can you check *C(=O)Nc1cccc(C(=O)Nc2cccc(NC(=O)c3ccc4[nH]c(-c5cccc(-c6nc7cc(*)ccc7[nH]6)c5)nc4c3)c2)c1 (repeat unit) next?
331.00 °C

What do you get for *CCCCCCCCCCC(=O)NCCCCCC(=O)N* (repeat unit) ?
25.50 °C

Note, next up: *CC1CCC(CNC(=O)CCCCCCCCC(=O)N*)CC1 (repeat unit)
89.00 °C

Try this molecule too: *c1ccc2c(c1)C(=O)N(c1cccc(C(F)(F)C(F)(F)C(F)(F)c3cccc(N4C(=O)c5ccc(C(F)(F)C(F)(F)C(F)(F)C(*)(F)F)cc5C4=O)c3)c1)C2=O (repeat unit)
159.00 °C

Try *Oc1c(Cl)cc(C(=C(Cl)Cl)c2cc(Cl)c(OC(*)=O)c(Cl)c2)cc1Cl (repeat unit) next.
250.00 °C

What do you have for */C(CCCCCC)=C(/*)c1ccccc1 (repeat unit) ?
200.00 °C

Please give the result for *CC(*)(CC(=O)OCCc1ccccc1)C(=O)OCCc1ccccc1 (repeat unit) too.
45.00 °C

One more molecule: *c1cccc(P(=O)(c2ccc(C(F)(F)F)cc2)c2cccc(-n3c(=O)c4cc5c(=O)n(*)c(=O)c5c(-c5ccccc5)c4c3=O)c2)c1 (repeat unit)
311.00 °C

// next record *c1ccc(OC(=O)c2ccc(C(=O)Oc3ccc(C4(*)c5ccccc5C(=O)N4C)cc3)cc2)cc1 (repeat unit)
282.00 °C

Follow-up item: *Oc1ccc(CC(NC(=O)CCc2ccc(OC(=O)CCCC(*)=O)cc2)C(=O)OCCCCCCCCCCCC)cc1 (repeat unit)
27.50 °C

----------
Field: glass transition temperature. Provide a value for each of the compounds that follow.
Put down the number, then write its unit next to it.

Can you share its glass transition temperature? I mean this compound: */C=C/c1cc(OCC(CC)CCCC)c(/C=C/c2ccc3c4ccc(*)cc4n(CC(CC)CCCC)c3c2)cc1OCC(CC)CCCC (repeat unit)
61.00 °C

How about *CCN(CCOC(=O)NCC1(C)CC(NC(=O)O*)CC(C)(C)C1)c1ccc(C=C(C#N)C#N)cc1 (repeat unit) ?
145.00 °C

Likewise for *Oc1ccc(CC(NC(=O)Cc2ccc(OC(=O)CCCCCCCCC(*)=O)cc2)C(=O)OCCCCCCCC)cc1 (repeat unit) ?
16.00 °C

*CC(*)c1ccc([SiH](C)C)cc1 (repeat unit) ?
105.00 °C

Repeat with *CC#CC#CCOC(=O)c1ccc(C(=O)O*)cc1 (repeat unit)
143.00 °C

Next compound up: *C(=O)Nc1c(CC)cc(Cc2cc(CC)c(NC(=O)c3ccc4c(c3)C(=O)N(c3ccc(/N=N/c5ccc(C)cc5)c(N5C(=O)c6ccc(*)cc6C5=O)c3)C4=O)c(CC)c2)cc1CC (repeat unit)
269.00 °C

Moving on to the next compound: *Cc1ccc2nc(-c3cc(-c4nc5ccc(*)cc5c(=O)o4)cc(N4C(=O)c5ccccc5C4=O)c3)oc(=O)c2c1 (repeat unit)
322.00 °C

Param item: *CC(O)COc1ccc(C(C)(C)c2ccc(OCC(O)COc3cccc(NC(=O)CCCCCCC(=O)Nc4cccc(O*)c4)c3)cc2)cc1 (repeat unit)
92.00 °C

Same for *Nc1ccc(*)cc1C (repeat unit)
-71.40 °C

What would you report for *C(=O)Nc1ccc(S(=O)(=O)c2ccc(NC(=O)c3ccc4[nH]c(-c5cccc(-c6nc7cc(*)ccc7[nH]6)c5)nc4c3)cc2)cc1 (repeat unit) ?
312.00 °C

Queued: *Oc1ccc(C(=O)c2ccc(Oc3ccc(C(=O)c4ccc(Oc5ccc(Cc6ccc(*)cc6)cc5)cc4)cc3)cc2)cc1 (repeat unit)
128.00 °C

*Oc1ccc(C(CC)(c2ccccc2)c2ccc(OC(=O)CCCCCCCCC(*)=O)cc2)cc1 (repeat unit) ?
88.00 °C

Entry *CC(OC(=O)C(Cc1ccccc1)NC(=O)OC(C)(C)C)C(COC(=O)O*)OC(=O)C(Cc1ccccc1)NC(=O)OC(C)(C)C (repeat unit) please
82.40 °C

Please do the same for *Oc1ccc(NC(=O)Nc2cc(NC(=O)Nc3ccc(*)c(-c4ccc(Oc5ccccc5)cc4)c3)ccc2C)cc1-c1ccc(Oc2ccccc2)cc1 (repeat unit) as well.
279.00 °C

----------
Rule: glass transition temperature below 200 °C gives 1. Equal to or above 200 °C gives -1.

Is 200 °C strictly greater than the molecule's reported glass transition temperature? molecule: *CCCCCCOC(=O)C(CCCCCP(=O)(OCC)OCC)C(=O)OCCCCCCOc1ccc(-n2on2-c2ccc(O*)cc2)cc1 (repeat unit)
1

Same question for *C(=O)c1cc2c(cc1Cl)C(=O)N(c1cc(C(=O)OC)cc(N3C(=O)c4cc(*)c(Cl)cc4C3=O)c1)C2=O (repeat unit) please.
-1

Next: *Oc1ccc(CC(NC(=O)CCc2ccc(OC(=O)COCC(*)=O)cc2)C(=O)OCCCCCCCC)cc1 (repeat unit)
1

Another molecule: *c1ccc(Oc2ccc(Oc3ccc(NC(=O)c4ccc(Oc5ccc6c(c5)C(=O)N(*)C6=O)cc4)cc3)cc2)cc1 (repeat unit)
-1

Record: *Oc1ccc(C(C)(C)c2ccc(OC(=O)c3ccc([Si](C)(C)c4ccc(C(*)=O)cc4)cc3)cc2)cc1 (repeat unit)
1

Please do the same for *c1ccc(Cc2ccc(N3C(=O)c4ccc(Oc5ccc(Oc6ccc7c(c6)C(=O)N(*)C7=O)cc5)cc4C3=O)c(OC)c2)cc1OC (repeat unit) as well.
-1

----------
Lab note - cut at 50 °C for glass transition temperature: Met if strictly below, Not met if not.

Please state whether glass transition temperature is below 50 °C for *CC1CC(CNC(=O)c2cccc(C(=O)N*)c2)CC(C(C)(C)C)C1 (repeat unit)
Not met

// repeat for *O[Si](*)(C)c1c(F)c(F)c(F)c(F)c1F (repeat unit) and report
Met

Another compound to look at: *OC(=O)C(CCSC)NC(=O)CCCCC(=O)NC(CCSC)C(=O)OC1COC2C(*)COC12 (repeat unit)
Not met

Would you kindly repeat that for *CC(*)C(=O)Oc1ccc(C(=O)OCCCC)cc1 (repeat unit) ?
Met

What about */C=C/C(C)C(*)C(=O)OCCCN(C)c1ccc(N(C)C)cc1 (repeat unit) ?
Met

Now consider *Oc1ccc(/N=C/c2ccc(Oc3ccc(C(c4ccccc4)(c4ccccc4)c4ccc(Oc5ccc(/C=N/c6ccc(*)cc6)cc5)cc4)cc3)cc2)cc1 (repeat unit) and answer again.
Not met

// next record *CC(*)(C)C(=O)OCCOCCOCC1COCCOCCOCCO1 (repeat unit)
Met

For *c1c(C)cc(C(c2cccnc2)c2cc(C)c(N3C(=O)CC(Nc4ccc(Cc5ccc(NC6CC(=O)N(*)C6=O)cc5)cc4)C3=O)c(C)c2)cc1C (repeat unit) then?
Not met

What do you get for *CC(*)C#N (repeat unit) [Poly(acrylonitrile)] ?
Not met

Request: *CC(*)c1ccncc1 (repeat unit) [Poly(p-vinyl pyridine) ]
Not met

Follow-up entry: *CCC[Si](*)(c1cccc2ccccc12)C1CCCCC1 (repeat unit)
Met

Proceed to *CCCCCCOC(=O)OCCCCOC(=O)OCCCCCCOc1ccc(Oc2ccc(O*)cc2)cc1 (repeat unit)
Met

Next up: *Oc1ccc(S(=O)(=O)c2ccc(Oc3ccc(C4(c5ccc(Oc6ccc(S(=O)(=O)c7ccc(Oc8ccc(/C=C9\CC/C(=C\c%10ccc(*)cc%10)C9=O)cc8)cc7)cc6)cc5)CCCC4)cc3)cc2)cc1 (repeat unit)
Not met

Can you check *CC(*)(C)C(=O)OCCCCCCOc1ccc(/N=N/c2ccc(OC)cc2)cc1 (repeat unit) next?
Not met

Field entry: *CCN(*)C(=O)c1cc(F)c(F)c(F)c1 (repeat unit)
Not met

And *Oc1ccc(S(=O)(=O)c2ccc(Oc3ccc(/N=C/c4ccc(*)cc4)cc3)cc2)cc1 (repeat unit) ?
Not met
